- Species on record: Homo sapiens
- Measurement Description: Inhibition of mitochondrial complex I (unknown origin) at 1 uM incubated for 15 mins by microplate reader analysis relative to control
Each entry gets FALSE if its inhibition stays under 30%, and TRUE if its inhibition is 30% or above.

Chem Smiles: Cc1cc(C(=O)Nc2ccc(OC(F)(F)F)cc2)nn1Cc1cccc(-c2ccccc2O)c1
Qualitative Label: FALSE
//
Chem Smiles: COc1cc(Cn2nc(C(=O)Nc3ccc(OC(F)(F)F)cc3)cc2C)cc(OC)c1
Qualitative Label: FALSE
//
Chem Smiles: Cc1cc(C(=O)Nc2ccc(OC(F)(F)F)cc2)nn1Cc1cccc(N2CCN(S(C)(=O)=O)CC2)c1
Qualitative Label: TRUE
//
Chem Smiles: CC(C)(C)c1cc(C(=O)Nc2ccc(OC(F)(F)F)cc2)nn1Cc1cccc(N2CCC(S(C)(=O)=O)CC2)c1
Qualitative Label: TRUE
//
Chem Smiles: Cc1cc(C(=O)Nc2cccc(F)c2)nn1Cc1cccc(N2CCN(C(=O)C3CC3)CC2)c1
Qualitative Label: FALSE
//
Chem Smiles: Cc1cc(C(=O)Nc2ccc(OC(F)(F)F)cc2)nn1Cc1cccc(S(=O)(=O)N2CCOCC2)c1
Qualitative Label: FALSE
//
Chem Smiles: Cc1cc(C(=O)Nc2ccc(OC(F)(F)F)cc2)nn1Cc1ccc(F)c(Br)c1
Qualitative Label: FALSE
